The reported measurements were obtained from ChEMBL document CHEMBL3632541.

- testMethodNotes: Cytotoxicity against human HuTu 80 cells assessed as growth inhibition after 48 hrs by SRB assay method
- Type: cell-based, HuTu80

>  <smilesString>
Ic1c(-c2ccccc2)nc2c(NCCN3CCOCC3)nccn12

>  <valueUnit>
µg/mL

>  <GI50 at 48 h>
33

$$$$
>  <smilesString>
CN(C)c1nccn2c(I)c(-c3ccccc3)nc12

>  <valueUnit>
µg/mL

>  <GI50 at 48 h>
44

$$$$
>  <smilesString>
Fc1ccc(-c2nc3c(NCCN4CCOCC4)nccn3c2I)cc1

>  <valueUnit>
µg/mL

>  <GI50 at 48 h>
73

$$$$
>  <smilesString>
CN(C)c1nccn2c(I)c(-c3ccc(F)cc3)nc12

>  <valueUnit>
µg/mL

>  <GI50 at 48 h>
22

$$$$
>  <smilesString>
CN(C)c1nccn2c(-c3ccncc3)c(-c3ccccc3)nc12

>  <valueUnit>
µg/mL

>  <GI50 at 48 h>
50

$$$$
>  <smilesString>
Fc1ccc(-c2nc3c(NCCN4CCOCC4)nccn3c2-c2ccncc2)cc1

>  <valueUnit>
µg/mL

>  <GI50 at 48 h>
28

$$$$
>  <smilesString>
CN(C)CCNc1nccn2c(I)c(-c3ccc(F)cc3)nc12

>  <valueUnit>
µg/mL

>  <GI50 at 48 h>
6

$$$$
>  <smilesString>
CN(C)c1nccn2c(-c3ccncc3)c(-c3ccc(F)cc3)nc12

>  <valueUnit>
µg/mL

>  <GI50 at 48 h>
77

$$$$
>  <smilesString>
CN(C)CCNc1nccn2c(I)c(-c3ccccc3)nc12

>  <valueUnit>
µg/mL

>  <GI50 at 48 h>
12

$$$$
>  <smilesString>
CN(C)CCNc1nccn2c(-c3ccncc3)c(-c3ccc(F)cc3)nc12

>  <valueUnit>
µg/mL

>  <GI50 at 48 h>
24

$$$$
>  <smilesString>
O=c1[nH]cc(F)c(=O)[nH]1

>  <valueUnit>
µg/mL

>  <GI50 at 48 h>
0.4

$$$$
>  <smilesString>
CN(C)CCNc1nccn2c(-c3ccncc3)c(-c3ccccc3)nc12

>  <valueUnit>
µg/mL

>  <GI50 at 48 h>
32

$$$$
